System: MS2 coat protein
Measurement protocol: apparent KD of MS2 coat protein; higher = weaker reporter binding
Recorded conditions: Eterna round: R107; input ligand: theophylline 20 uM
Below: a set of entries, each annotated with reported apparent KD of MS2 coat protein.

| Chain | apparent KD of MS2 coat protein / nM |
| --- | --- |
| UGAGUUCGCUGAUGGGCUACGUCAGGUGAUACCAGCCACUCCCGCGGCCCUUGGCAGCACAUGAGGAUCACCCAUGUAGAGCUUG [Lazaceonus] | 20.4 |
| GAGCUGAUGUAGAGCUAAUAUAAGAGAGAUACCAGUACAGAAAUGUACCCUUGGCAGCUCAACUUUACAUGAGGAUCACCCAUGU [Ex Theophylline A 21] | 13.4 |
| UGUAUUGGAAACAGUACUAGUGAUCCGGUCCGAGGACCGGUACGGCCGCCACUCGAUAUAAAUAAACAUGAGGAUCACCCAUGUA [Ex Tryptophan A 13] | 17.1 |
| CGUCGAGACUGAAGGAGCGAGAUAACAACAUUGGGUCUCAACAUGAGGAUCACCCAUGUAUCUCAGGUAGGUCGCGGUGUCACCG [Exclusion Arginine B GF20] | 302 |
| UGUCGGCGUAAGUUGGCAUGUCUUGCUGGUCGAGGACCGGUACGGCCGCCACUCGAUCCUUCGCACAUGAGGAUCACCCAUGUUG [SS Tryp A #25] | 29.3 |
| GUUAGUUACACGGCCGCCACUCUUUGGCUUGGCUCAAGCUCCCAACAUGAGGAUCACCCAUGUCAGAGGACCGGGUGAACAACGU [theeternabot_sameState_MS2_Trp_B_28] | 180 |
| GGUUACUCUACGGCCGCCACUGAAAAGUAAAUAUUAAUGUACAUGACAUGAGGAUCACCCAUGUACAGGACCGGGUAGUGUAACC [Tryptophan B 13] | 102 |
| GGCCCUGCGGGCGCCCGCAGGGCCGCGGAUACCAGCGAGGUCCAUCGCCCUUGGCAGCCGAACAUGAGGAUCACCCAUGUCGGUG [Same State - Theophylline A Attempt #8 (HarryS)] | 20.4 |
